Tested on: Plasmodium falciparum NF54 asexual blood stage
ASSAY SUMMARY: % inhibition of asexual blood stage proliferation (pLDH); higher = more inhibition
MEASUREMENT CONTEXT: 2 µM; 72 h
MEASUREMENT KIND: % inhibition of asexual blood stage proliferation (%)
Please state the figure in %; there is no need to write the unit.

What value of % inhibition of asexual blood stage proliferation has been recorded for this entry: "COc1ccc(C)cc1NC(=O)c1ccc(S(=O)(=O)N2CCCCC2)cc1"
1.42

What value of % inhibition of asexual blood stage proliferation has been recorded for this entry: "CCCCc1ccc(-c2cc(C(=O)O)cc(-c3ccc(Cl)cc3)n2)cc1"
43

What value of % inhibition of asexual blood stage proliferation has been recorded for this entry: "Cn1cncc1[C@@](N)(c1ccc(Cl)cc1)c1ccc2c(c1)c(-c1cccc(Cl)c1)cc(=O)n2C"
51.2

What value of % inhibition of asexual blood stage proliferation has been recorded for this entry: "Cc1c(CN(C)C(=O)/C=C/c2cnc3c(c2)C(C)(C)C(=O)N3)oc2ccccc12"
13.1

What value of % inhibition of asexual blood stage proliferation has been recorded for this entry: "C[C@H]1COc2c(N3CCN(C)CC3)c(F)cc3c(=O)c(C(=O)O)cn1c23"
15.5

What value of % inhibition of asexual blood stage proliferation has been recorded for this entry: "O=S(=O)(NCB(O)O)c1cc2c(Cl)ccc(Cl)c2s1"
-17.5

What value of % inhibition of asexual blood stage proliferation has been recorded for this entry: "CCC[C@H](NC(=O)[C@@H]1[C@H]2CCC[C@H]2CN1C(=O)[C@@H](NC(=O)[C@@H](NC(=O)c1cnccn1)C1CCCCC1)C(C)(C)C)C(=O)C(=O)NC1CC1"
49.1

What value of % inhibition of asexual blood stage proliferation has been recorded for this entry: Oc1cccc(C(Nc2nccs2)c2ccc3cccnc3c2O)c1 (centres undefined)
80

What value of % inhibition of asexual blood stage proliferation has been recorded for this entry: "Nc1cccc(-c2nc(N)nc(NC3Cc4ccccc4C3)n2)c1"
-7.13

---

System: Plasmodium falciparum NF54 stage IV/V gametocytes
ASSAY SUMMARY: % inhibition of gametocyte viability (luciferase reporter); higher = more inhibition
MEASUREMENT CONTEXT: 1 µM; 48 h
Hi there, I'd appreciate the recorded % inhibition of gametocyte viability for every entry that follows.
Please state the figure in %; there is no need to write the unit.

Item: "CCc1nc(N)nc(N)c1C#CCc1ccccc1" Test system: Plasmodium falciparum NF54 stage IV/V gametocytes Read-out: % inhibition of gametocyte viability Value: ?
5.41

Item: CC1CCc2c(N3CCC(O)CC3)c(F)cc3c(=O)c(C(=O)O)cn1c23 (stereo not given) Test system: Plasmodium falciparum NF54 stage IV/V gametocytes Read-out: % inhibition of gametocyte viability Value: ?
1.04

Item: "COc1ccc(C(C)(C)C)cc1NC(=O)C(=O)c1ccc(OCCN2CCOCC2)c2ccccc12" Test system: Plasmodium falciparum NF54 stage IV/V gametocytes Read-out: % inhibition of gametocyte viability Value: ?
6.49

---

Hi there, I'd appreciate the recorded % inhibition of gametocyte viability for every entry that follows.
Test system: Plasmodium falciparum NF54 stage IV/V gametocytes
ASSAY SUMMARY: % inhibition of gametocyte viability (luciferase reporter); higher = more inhibition
MEASUREMENT CONTEXT: 5 µM; 48 h
Please state the figure in %; there is no need to write the unit.

What value of % inhibition of gametocyte viability has been recorded for this entry: O=C1c2cccc3cccc(c23)C(=O)N1CC1CO1 (stereo not drawn)
3.81

What value of % inhibition of gametocyte viability has been recorded for this entry: COc1cc(Cc2cnc(N)nc2N)c2c(c1OC)OC(C1CC1)C=C2 (stereo not drawn)
1.69

What value of % inhibition of gametocyte viability has been recorded for this entry: COc1ccc(NC(=O)CC2Sc3ncnn3C2=O)cc1 (stereo not drawn)
15.3

What value of % inhibition of gametocyte viability has been recorded for this entry: "CCOc1noc2cc(OCCC3CCN(c4ccc(C)nn4)CC3)ccc12"
5.12

What value of % inhibition of gametocyte viability has been recorded for this entry: "O=C(Cn1cnc2ccccc2c1=O)Nc1ccccc1"
1.55

What value of % inhibition of gametocyte viability has been recorded for this entry: "CCc1cc(CCCOc2c(C)cc(-c3noc(C(F)(F)F)n3)cc2C)on1"
13.1

What value of % inhibition of gametocyte viability has been recorded for this entry: "COc1cccc(N2CCN(C3=Nc4c(F)cccc4[C@H](CC(=O)O)N3c3cc(C(F)(F)F)ccc3OC)CC2)c1"
6.89

What value of % inhibition of gametocyte viability has been recorded for this entry: CCc1ccc(C2CC(C(F)(F)F)n3ncc(C(=O)NCc4ccc(OC)cc4)c3N2)cc1 (stereo not drawn)
6.49

What value of % inhibition of gametocyte viability has been recorded for this entry: "Nc1ccc2oc(=O)ccc2c1I"
2.65

What value of % inhibition of gametocyte viability has been recorded for this entry: "Cc1oncc1C(=O)Nc1ccc(C(F)(F)F)cc1"
45.6

What value of % inhibition of gametocyte viability has been recorded for this entry: "Cc1nc2ccc(Cl)cc2c(-c2ccccc2)c1CC(=O)O"
13.3

What value of % inhibition of gametocyte viability has been recorded for this entry: "NC(=O)c1ccccc1NC(=O)c1ccc(C(=O)Nc2ccccc2C(N)=O)cc1"
0.0831

What value of % inhibition of gametocyte viability has been recorded for this entry: "Cc1onc(-c2ccccc2Cl)c1C(=O)N[C@@H]1C(=O)N2[C@@H]1SC(C)(C)[C@@H]2C(=O)O"
7.91

What value of % inhibition of gametocyte viability has been recorded for this entry: "CCc1nc2ccccn2c1C(=O)NCc1ccccc1"
8.65

What value of % inhibition of gametocyte viability has been recorded for this entry: "CO[C@@]1(NC(=O)Cc2cccs2)C(=O)N2C(C(=O)O)=C(COC(N)=O)CS[C@@H]21"
2.58

What value of % inhibition of gametocyte viability has been recorded for this entry: "Cc1cccc(C)c1C(=O)Nc1nc(-c2ccccn2)cc2ccccc12"
68.3

What value of % inhibition of gametocyte viability has been recorded for this entry: "C[C@@H](O)[C@H](N)C(=O)NS(=O)(=O)c1cccc(-c2ccc3[nH]ncc3c2)c1"
6.84

What value of % inhibition of gametocyte viability has been recorded for this entry: Nc1nc(NC2Cc3ccc(F)cc3C2)nc(N2CCCCC2)n1 (stereo not drawn)
7.28

What value of % inhibition of gametocyte viability has been recorded for this entry: "COc1cc(NS(=O)(=O)c2ccc(C)cc2)c2ncccc2c1"
1.7

---

Test system: Plasmodium falciparum NF54 stage IV/V gametocytes
ASSAY SUMMARY: % inhibition of gametocyte viability (luciferase reporter); higher = more inhibition
MEASUREMENT CONTEXT: 1 µM; 48 h
MEASUREMENT KIND: % inhibition of gametocyte viability

What value of % inhibition of gametocyte viability has been recorded for this entry: "N#Cc1c(F)c(Cl)c(NCc2ccccc2)c(C#N)c1F"
2.47%

What value of % inhibition of gametocyte viability has been recorded for this entry: "Fc1ccc2c(/C=C/c3cccnc3)c[nH]c2c1"
< 0%

What value of % inhibition of gametocyte viability has been recorded for this entry: "CCCCc1ccc(-c2nc(C)c(C(=O)OC)s2)cc1"
< 0%

What value of % inhibition of gametocyte viability has been recorded for this entry: "CCCCN1C[C@H](O)[C@@H](O)[C@H](O)[C@H]1CO"
< 0%

What value of % inhibition of gametocyte viability has been recorded for this entry: "O=C(Nc1nnc(-c2ccc(Cl)cc2)o1)c1ccc(F)cc1"
< 0%

What value of % inhibition of gametocyte viability has been recorded for this entry: "Cc1cc(C)n(O)c(=O)c1"
< 0%

What value of % inhibition of gametocyte viability has been recorded for this entry: "NCc1ccc(S(N)(=O)=O)cc1"
< 0%

What value of % inhibition of gametocyte viability has been recorded for this entry: "CN1CCN(c2ccc3[nH]c(-c4ccc5[nH]c(-c6ccc(O)cc6)nc5c4)nc3c2)CC1"
< 0%

What value of % inhibition of gametocyte viability has been recorded for this entry: "CC[C@H](NC(=O)[C@H](C)NC)C(=O)N1C[C@@H](O)C[C@H]1Cc1c(-c2[nH]c3cc(F)ccc3c2C[C@@H]2C[C@H](O)CN2C(=O)[C@H](CC)NC(=O)[C@H](C)NC)[nH]c2cc(F)ccc12"
17%

What value of % inhibition of gametocyte viability has been recorded for this entry: "NC(=O)c1nccn([C@@H]2O[C@H](CO)[C@@H](O)[C@H]2O)c1=O"
7.58%

What value of % inhibition of gametocyte viability has been recorded for this entry: "O=C1[C@H](CC[C@H](O)c2ccc(F)cc2)[C@@H](c2ccc(O)cc2)N1c1ccc(F)cc1"
2.9%

What value of % inhibition of gametocyte viability has been recorded for this entry: "Cc1ccc(S(=O)(=O)Nc2cccc3cccnc23)cc1"
< 0%

What value of % inhibition of gametocyte viability has been recorded for this entry: "O=C(Nc1ccccc1)N(Cc1cc(Br)ccc1O)c1ccc(F)cc1"
< 0%

What value of % inhibition of gametocyte viability has been recorded for this entry: "O=c1cc(NCCCN[C@@H]2CCOc3c(Br)cc(Br)cc32)[nH]c2ccsc12"
< 0%

What value of % inhibition of gametocyte viability has been recorded for this entry: "Cc1nc(N(C)C(=O)Cc2ccc(-c3ccccn3)cc2)sc1S(N)(=O)=O"
17.6%

What value of % inhibition of gametocyte viability has been recorded for this entry: CCN(CC)CCn1c(=N)n(CC(O)COc2ccc(Cl)cc2Cl)c2ccccc21 (stereo unspecified)
< 0%

What value of % inhibition of gametocyte viability has been recorded for this entry: "O=C(Nc1nnc(-c2ccccc2)o1)c1ccc(F)cc1"
< 0%

What value of % inhibition of gametocyte viability has been recorded for this entry: "CN(C)c1[nH]c(=O)ncc1F"
< 0%

What value of % inhibition of gametocyte viability has been recorded for this entry: "O[C@@](Cn1cnnn1)(c1ccc(F)cc1F)C(F)(F)c1ccc(-c2ccc(OCC(F)(F)F)cc2)cn1"
< 0%

What value of % inhibition of gametocyte viability has been recorded for this entry: "Oc1ccc2[nH]c(-c3ccccc3)nc2c1"
< 0%

What value of % inhibition of gametocyte viability has been recorded for this entry: "Nc1nc(=O)c(Br)c(-c2cccc(Cl)c2)[nH]1"
< 0%
